Give pEC50 for every item shown.
targetOrTestSystem: human Farnesoid X receptor ligand-binding domain/Gal4 DNA binding domain chimera (Homo sapiens (Human), UniProt Q96RI1)
Sequence (Q96RI1 262-486, change not shown): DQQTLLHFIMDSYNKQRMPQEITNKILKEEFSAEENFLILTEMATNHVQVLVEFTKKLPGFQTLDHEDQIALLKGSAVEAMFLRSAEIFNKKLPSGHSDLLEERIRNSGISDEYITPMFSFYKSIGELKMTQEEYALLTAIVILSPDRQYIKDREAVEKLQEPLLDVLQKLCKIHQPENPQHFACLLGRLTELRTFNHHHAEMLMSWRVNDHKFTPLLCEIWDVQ
Sequence (P04386 1-147 partner): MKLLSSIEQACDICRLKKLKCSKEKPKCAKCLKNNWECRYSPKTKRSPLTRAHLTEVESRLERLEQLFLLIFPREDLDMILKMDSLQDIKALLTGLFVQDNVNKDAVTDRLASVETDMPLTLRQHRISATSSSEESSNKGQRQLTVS
protocol: Cell-based assay of FXR activation (FXR-UAS-bla HEK 293T beta-lactamase reporter)
experimentalContext: cellular FXR beta-lactamase reporter assay, FXR-UAS-bla HEK 293T cells, 16 h; pEC50 = -log EC50
Procedure: FXR activation was measured using a cell line and procedure obtained from Life Technologies (Cat # K1691). FXR-UAS-bla HEK 293T cells contain a human Farnesoid X receptor ligand-binding domain/Gal4 DNA binding domain chimera stably integrated into the CellSensor® UAS-bla HEK 293T cell line. […] Activation of FXR by bound ligands results in transcriptional activation of the beta-lactamase reporter gene, which is detected via assay of beta-lactamase activity. […]
Give bare numbers, as −log10 of the molar value.

| compoundStructure | pEC50 |
| --- | --- |
| Cc1cccc(Cl)c1-c1noc(C2CC2)c1CO[C@@H]1C[C@@H]2C[C@H]1CN2c1nc2c(OC3CC3)cc(C(=O)O)cc2s1 | 10.00 |
| O=C(NS(=O)(=O)C1CC1)c1ccc(N2C[C@@H]3C[C@H]2C[C@H]3OCc2c(C3CCC4(CC3)CC4)noc2C2CC2)cc1 | 7.70 |

Task: I'd like to know its pEC50. The compound in question is O=C(O)c1cc(O[C@@H]2CCOC2)c2nc(N3C[C@@H]4C[C@H]3C[C@H]4OCc3c(-c4c(F)cccc4Cl)noc3C3CC3)sc2c1
Output: 8.80

Taken from patent US10793568B2.
